# measured-on: Ybr033w (UniProt P38073)
# Sequence: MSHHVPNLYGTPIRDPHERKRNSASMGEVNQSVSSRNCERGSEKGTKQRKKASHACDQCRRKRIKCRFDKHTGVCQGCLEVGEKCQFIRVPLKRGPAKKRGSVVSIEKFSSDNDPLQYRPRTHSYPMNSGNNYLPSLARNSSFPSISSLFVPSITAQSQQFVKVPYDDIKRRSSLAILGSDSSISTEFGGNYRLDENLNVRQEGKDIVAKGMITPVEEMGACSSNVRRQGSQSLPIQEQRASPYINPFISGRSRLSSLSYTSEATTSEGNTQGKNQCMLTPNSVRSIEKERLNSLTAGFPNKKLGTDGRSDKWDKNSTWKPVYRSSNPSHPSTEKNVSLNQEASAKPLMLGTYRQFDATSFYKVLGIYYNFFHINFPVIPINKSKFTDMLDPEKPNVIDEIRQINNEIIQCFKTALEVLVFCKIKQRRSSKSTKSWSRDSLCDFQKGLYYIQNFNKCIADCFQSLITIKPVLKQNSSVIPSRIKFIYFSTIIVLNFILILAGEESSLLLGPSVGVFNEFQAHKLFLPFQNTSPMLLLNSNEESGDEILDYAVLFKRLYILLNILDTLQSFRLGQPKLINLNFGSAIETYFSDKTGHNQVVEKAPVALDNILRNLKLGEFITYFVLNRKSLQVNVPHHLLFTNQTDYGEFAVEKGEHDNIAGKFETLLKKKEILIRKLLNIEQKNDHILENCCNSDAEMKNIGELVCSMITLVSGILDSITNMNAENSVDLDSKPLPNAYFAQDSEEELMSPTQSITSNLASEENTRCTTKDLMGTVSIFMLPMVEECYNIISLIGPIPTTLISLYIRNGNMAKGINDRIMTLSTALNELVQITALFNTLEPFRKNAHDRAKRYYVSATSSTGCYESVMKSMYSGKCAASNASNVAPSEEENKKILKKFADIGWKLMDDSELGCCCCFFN
# method-notes: PBM E-score (8-mer binding enrichment) (E-score (-0.5 to 0.5)); higher = stronger / more preferred TF binding
# details: protein concentration: 200 nM; construct: GST-full length
The full ranking holds about 33,000 sequences; the median of “E-score (-0.5 to 0.5)” is about -0.012, and the highest 2% start at about 0.29. The sample as a whole holds a higher share of the highest values than the screen did.
Decision: PBM E-score >= 0.1 yields true, all other cases yield false.

Use the examples below as a reference point.
[
  {
    "sequence-record": "CCAATCAA",
    "assigned-class": "false"
  },
  {
    "sequence-record": "CGGGGCGA",
    "assigned-class": "false"
  },
  {
    "sequence-record": "CCCACCAC",
    "assigned-class": "false"
  },
  {
    "sequence-record": "AAATTAGT",
    "assigned-class": "true"
  }
]

Check if PBM E-score >= 0.1 (inclusive). Item: CCCGAGGC
false

Check if PBM E-score >= 0.1 (inclusive). Item: ATAATATG
true

Check if PBM E-score >= 0.1 (inclusive). Item: ATAATGGG
true

Check if PBM E-score >= 0.1 (inclusive). Item: ACCATCTA
false

Check if PBM E-score >= 0.1 (inclusive). Item: ACATAAAT
true

Check if PBM E-score >= 0.1 (inclusive). Item: AGATTATC
true

Check if PBM E-score >= 0.1 (inclusive). Item: AAATTATT
true
